From various publications: Ki for UDP-glucuronosyltransferase 1A1 (Homo sapiens).

COMPOUND | Ki
COc1ccc([C@H]2OC[C@H]3[C@@H]2CO[C@@H]3c2ccc(OC)c(OC)c2)cc1OC | 25.7 µM
COc1ccc(-c2cc(=O)c3c(O)cc(O)cc3o2)cc1-c1c(O)cc(O)c2c(=O)cc(-c3ccc(O)cc3)oc12 | 0.18 µM
COc1cc([C@H]2OC[C@H]3[C@@H]2CO[C@@H]3c2cc(OC)c(OC)c(OC)c2)cc(OC)c1OC | 17.1 µM
COc1ccc(-c2cc(=O)c3c(O)cc(O)c(-c4cc(-c5cc(=O)c6c(O)cc(OC)cc6o5)ccc4OC)c3o2)cc1 | 0.67 µM
COc1cc2c(cc1OC)C1C(C)c3ccc(OC)c(OC)c3CN1CC2 (centres unmarked) | 57.6 µM
